Each entry below carries its recorded half-life.
# TEST_PROTOCOL: Stability assessed as half life at pH 2
# Type: physicochemical
# CONDITION_CONTEXT: buffer

SMILES_TEXT	UNIT_OF_MEASURE	half-life
O=C1C=C2N(c3ccccc3)C[C@H]3C[C@@]23c2ccccc21	h	171
COc1ccc(N2C[C@H]3C[C@@]34C2=CC(=O)c2ccccc24)cc1	h	198
COC(=O)c1ccc(N2C[C@H]3C[C@@]34C2=CC(=O)c2ccccc24)cc1	h	138

---

# TEST_PROTOCOL: Stability assessed as half life at pH 7
# Type: physicochemical
# CONDITION_CONTEXT: buffer

SMILES_TEXT	half-life / h
CC(C)(C)OC(=O)N1CC[C@H]2C[C@@]23C1=CC(=O)c1ccccc13	544
COC(=O)C1=NC2=C(OCc3ccccc3)C=C3N(C(=O)c4cc5cc(OC)c(OC)c(OC)c5[nH]4)C[C@H]4C[C@@]34C2=C1	0.717
O=C1C=C2CC[C@H]3C[C@@]23c2ccccc21	4
CC(C)(C)OC(=O)N1CCC[C@H]2C[C@@]23C1=CC(=O)c1ccccc13	2.1

---

# TEST_PROTOCOL: Stability assessed as half life at pH 3
# Assay type: physicochemical
# CONDITION_CONTEXT: buffer
Each entry below carries its recorded half-life.
PROPERTY_LABEL: half-life (h)

COMPOUND	ENDPOINT_VALUE
CC(C)(C)OC(=O)N1C[C@H]2C[C@@]23C1=CC(=O)c1ccc(C#N)cc13	3.55
COc1ccc2c(c1)[C@@]13C[C@@H]1CN(C(=O)OC(C)(C)C)C3=CC2=O	1.83
COC(=O)N1C[C@H]2C[C@@]23C1=CC(=O)c1ccccc13	0.95
COC(=O)c1cccc2c1C(=O)C=C1N(C(=O)OC(C)(C)C)C[C@H]3C[C@]123	3.93
Cc1csc2c1[C@@]13C[C@@H]1CN(C(=O)OC(C)(C)C)C3=CC2=O	206
CC(C)(C)OC(=O)N1CCC[C@H]2C[C@@]23C1=CC(=O)c1ccccc13	0.03
Cc1cc2c(s1)[C@@]13C[C@@H]1CN(C(=O)OC(C)(C)C)C3=CC2=O	209
O=C1C=C2CC[C@H]3C[C@@]23c2ccccc21	1.3
CNC(=O)N1C[C@H]2C[C@@]23C1=CC(=O)c1ccccc13	0.6
O=C1C=C2NC[C@H]3C[C@@]23c2ccccc21	4200
COc1cc2cc(C(=O)N3C[C@H]4C[C@@]45C3=CC(=O)c3ccccc35)[nH]c2c(OC)c1OC	133
COC(=O)c1cc2c([nH]1)C(=O)C=C1N(C(=O)c3cc4cc(OC)c(OC)c(OC)c4[nH]3)C[C@H]3C[C@]123 [DUOCARMYCIN]	177
CCS(=O)(=O)N1C[C@H]2C[C@@]23C1=CC(=O)c1ccccc13	6.38
COC(=O)C1=NC2=C(OCc3ccccc3)C=C3N(C(=O)c4cc5cc(OC)c(OC)c(OC)c5[nH]4)C[C@H]4C[C@@]34C2=C1	0.417
CCC(=O)N1C[C@H]2C[C@@]23C1=CC(=O)c1ccccc13	1.6

These entries and their values trace back to ChEMBL document CHEMBL1153514.
